# procedure.details: Inhibition of ferroptosis in tamoxifen induced Gpx4-/- mouse MEF cells
# Format: functional, cell-based
reported.property: IC50 (nM)
Give bare numbers, in nM.

query: Look up IC50 for this compound: Clc1cccc(CNC2=Nc3ccccc3NC23CCNCC3)c1
result: 22

====

# procedure.details: Inhibition of erastin-induced cell death in human HT-1080 cells
# Type: functional, cell-based
Kindly supply the reported pIC50 values for the records listed here.
One number for each entry, as −log10 of the molar value.

cpd.smiles | pIC50
CCOC(=O)c1ccc(NC2CCCCC2)c(NCc2ccccc2)c1 | 8.22

We next turn to a different compound, shown below.
query: Look up pIC50 for this compound: CCOC(=O)c1ccc(NC2CCCCC2)c(N)c1
result: 7.02
